The entries below come with measured melting point values attached.

INSERT INTO measurements (molecule, reported_endpoint, reported) VALUES
  ('N#Cc1cc(F)cc(Oc2c(Cl)ccc(Cc3ccc(=O)n(COC(=O)CCC(=O)O)n3)c2F)c1 [Compound I-30]', 'melting point', '133.9 to 137 °C');

# query: melting point of entry N#Cc1cc(F)cc(Oc2c(Cl)ccc(Cc3ccc(=O)n(CO)n3)c2F)c1 [Compound I-29] 100.5 to 103.8 °C

Can you look up the measured melting point of Cc1cc(Cc2ccc(Cl)c(Oc3cc(C#N)cc(C#N)c3)c2F)nn(COC(=O)CCC(=O)O)c1=O [Compound I-8] for me? 167 to 171.5 °C

* * *

Here, each record is paired with measured Cmax data.
method_notes: Oral pharmacokinetics in rats: plasma concentration of active nnRTI after gavage of prodrug or parent (Example 8)
Format: in vivo
measurement_conditions: rat, plasma, po, parent compound dosed p.o. at 50 mg/kg, read-out: Cmax (peak concentration of active nnRTI) (converted)
Procedure: dose equivalent to (0.127 mmol) was administered orally by gavage. A blood sample (0.3 mL) was collected from the […] at 0.5, 1, 2, 3, 4, 6 and 8 hours after via the jugular cannula. A sample of at least 0.3 mL of blood was withdrawn from the untreated animals 3 h after dosing. After 24 h from dosing, as much blood as possible was collected from all treated and control animals. […] The concentration of test compound was determined by hplc.
Entry rule: numbers only, all in ng/mL.

INSERT INTO measurements (molecule, unit_spec, reported) VALUES
  ('Cc1cc(Cc2ccc(Cl)c(Oc3cc(C#N)cc(C#N)c3)c2F)n[nH]c1=O [Compound 10]', 'ng/mL', 600);

With those in mind, consider the next molecule.
Name the reported Cmax value associated with the molecule Cc1cc(Cc2ccc(Cl)c(Oc3cc(Cl)cc(C#N)c3)c2F)n[nH]c1=O [Compound 11] 2300

* * *

Structures can show the parent of a compound that is named as a salt.
reported_endpoint: melting point

Reference set (5 entries):
INSERT INTO measurements (molecule, reported) VALUES
  ('Cc1cc(Cc2ccc(Cl)c(Oc3cc(C#N)cc(C(F)F)c3)c2F)nn(COC(=O)CCC(=O)O)c1=O', '154.3 to 156.9 °C'),
  ('Cc1cc(Cc2ccc(Cl)c(Oc3cc(C#N)cc(C(F)F)c3)c2F)nn(CO)c1=O', '113.9 to 117.3 °C'),
  ('Cc1cc(Cc2ccc(Cl)c(Oc3cc(C#N)cc(C#N)c3)c2F)nn(COC(=O)[C@@H](N)C(C)C)c1=O (as salt: hydrochloride)', '176.7 to 178.3 °C'),
  ('Cc1cc(Cc2ccc(Cl)c(Oc3cc(C#N)cc(C#N)c3)c2F)nn(CO)c1=O', '172 to 179 °C'),
  ('Cc1cc(Cc2ccc(Cl)c(Oc3cc(C#N)cc(C#N)c3)c2F)nn(COP(=O)(O)O)c1=O (as salt: sodium) (hydrate or solvate) [Compound I-23, disodium salt]', '193.7 to 197.2 °C');

Requested read-out: melting point. Entry: Cc1cc(Cc2ccc(Cl)c(Oc3cc(C#N)cc(C#N)c3)c2F)nn(COC(=O)OCCN(C)C)c1=O (as salt: HCl) 75 to 90 °C
